tgt: T1, Human PTGFRN-ECD (extracellular domain; amino-acid 26 to amino-acid Y at 832), His-tag protein (human, UniProt Q9P2B2 26-832)
T1 construct: range 26-832; Expressed in Hek-293 cells, purified on a nickel column; also called recombinant PTGFRN; not shown: His-tag
T1 sequence (looked up): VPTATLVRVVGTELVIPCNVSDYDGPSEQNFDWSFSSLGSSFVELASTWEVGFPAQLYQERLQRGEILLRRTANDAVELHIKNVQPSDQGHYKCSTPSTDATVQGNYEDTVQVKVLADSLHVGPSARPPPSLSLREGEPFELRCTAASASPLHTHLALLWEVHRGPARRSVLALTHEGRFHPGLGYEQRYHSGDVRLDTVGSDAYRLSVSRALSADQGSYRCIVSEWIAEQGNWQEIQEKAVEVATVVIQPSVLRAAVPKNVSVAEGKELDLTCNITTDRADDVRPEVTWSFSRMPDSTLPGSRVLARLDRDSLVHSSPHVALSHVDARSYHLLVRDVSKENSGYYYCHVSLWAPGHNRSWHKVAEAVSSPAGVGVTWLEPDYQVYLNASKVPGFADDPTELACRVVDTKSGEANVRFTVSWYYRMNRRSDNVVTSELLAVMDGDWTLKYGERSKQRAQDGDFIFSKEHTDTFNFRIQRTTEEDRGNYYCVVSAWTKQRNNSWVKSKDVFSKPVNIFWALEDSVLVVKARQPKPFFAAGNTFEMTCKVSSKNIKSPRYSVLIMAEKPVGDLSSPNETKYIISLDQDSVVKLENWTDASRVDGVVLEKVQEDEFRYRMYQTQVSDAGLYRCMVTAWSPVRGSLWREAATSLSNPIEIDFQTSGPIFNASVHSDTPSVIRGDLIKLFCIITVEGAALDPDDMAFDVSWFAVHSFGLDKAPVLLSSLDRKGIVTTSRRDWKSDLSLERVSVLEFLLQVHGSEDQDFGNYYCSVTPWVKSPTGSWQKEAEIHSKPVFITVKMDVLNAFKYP
assay protocol: Octet Red96 pairing (binning matrix) on PTGFRN-ECD; capture Ab (1st loading Ab): 10D9
Overview of recorded Octet pairing response for various binders
Give the figure by itself; no unit, no explanation.

binder	Octet pairing response
3E10 (antibody, V domains shown) VH: EVHLVESGGDLVKPGGSLKLSCAASGFTFSSYGMSWVRQTPDKRLEWVASISSGGSHTYYPDRVKGRFTISRDNAKNTLYLQMSSLKSEDTAMYYCARHPSYYGSSLYCFDYWGQGTTLTVSS VL: DIQMTQTTSSLSASLGDRVTISCRASQDISNYLNWYQQKPDGTVKLLIYYTSRLHSGVPSRFSGSGSGTDFSLTISNLEQEDVATYFCQQGSTLPWTFGGGTKLEIK	0.219
2B12 (antibody, V domains shown, Mouse hybridoma mAb) VH: QVQLQQPGAELVKPGASVKMSCKASGYTFTSYWITWVKQGPGQGLEWIGDIYPGSGNTNYNEKFKSKATLTVDTSSSTAYMQLSSLTSEDSAVYYCARFFILTSYYFDYWGQGTTLTVSS VL: GIVMTQSQKFMSTTVGDRVSITCKASQNVGTAVAWFQQKPGQSPKLLIYLASNRYTGVPDRFTGSGSGTDFTLTISNMQSEDLADYFCQQYSNYPLTFGAGTKLELK	0.111

For the binder shown here, 1E2 (antibody, V domains shown, Mouse hybridoma mAb) VH: DVQLQESGPGLVKPSQSLSLTCSVTDYSITSGYYWNWIRQFPGNKLEWMGYISYDGSNNYNPSLKNRLSITRDTSKNQFFLKLNSVTPEDTATYYCARGWDYCFDYWGQGATLTVSS VL: DIQMTQTTSSLSASLGDRVTISCSASQGISNYLNWYQQKPDGTVKLLIYYTSGLHSGVPSRFSGSGSGTDYSLTISNLEPEDIATYYCQQYSQLPWTFGGGTKLEIK , give the reported Octet pairing response.
0.24

Endpoint output: Octet pairing response of 6F6 (antibody, V domains shown, Mouse hybridoma mAb) VH: QVQLQQSGAELVKPGASVKVSCKASGYTFTTYWMHWVKQRPGQGLEWIGRIHPSDSDTNYNQKFKGKATLTLDKSSSTAYMQLSSLTSEDSAVYYCAMSLYYTMDYWGQGTSVTVSS VL: DIQMTQSPSSLSASLGGKVTITCKASQDIKKYIAWYQHKPGKGPRLLIHYTSTLQPGIPSRFSGSGSGRDYSFSISNLEPEDIATYYCLQYDNLLYTFGGGTKLEIK . Value?
0.191
